Tested on: human SMAD7 mRNA
testSummary: Antisense inhibition of human SMAD7 mRNA expression in Hep3B cells by 5-10-5 MOE gapmers, single concentration, electroporation, RT-PCR (Example 1, Study 1 and 2)
Type: cell-based
testConditions: electroporation, 15,000 nM antisense oligonucleotide (Study 2), 5-10-5 MOE gapmers targeting SEQ ID NO: 1 and 2
Strand notation (5' to 3'): a small letter for the sugar, then the base; units joined by * are phosphorothioate-linked, units joined directly phosphodiester-linked; [ ] holds rarer units or linkages, { } end groups; capitals alone tell only the bases. e = 2'-O-(2-methoxyethyl) (MOE); [5mC] = 5-methylcytosine; d = 2'-deoxy (DNA)
Consider the following substances and their measured % inhibition of SMAD7 mRNA expression readings.
assayReadout: % inhibition of SMAD7 mRNA expression (%)

{"columns": ["substance", "systemName", "assayReadout", "recordedResult"],
 "data": [
  ["771434 (eG*e[5mC]*e[5mC]*eG*e[5mC]*dT*d[5mC]*d[5mC]*dT*dT*d[5mC]*dA*dG*dT*dT*eT*e[5mC]*eT*eT*eG; antisense) [compound 771434]", "human SMAD7 mRNA", "% inhibition of SMAD7 mRNA expression", 27],
  ["771411 (e[5mC]*e[5mC]*eT*eT*e[5mC]*dT*d[5mC]*d[5mC]*d[5mC]*d[5mC]*dG*d[5mC]*dA*dG*d[5mC]*eT*e[5mC]*eG*e[5mC]*e[5mC]; antisense) [compound 771411]", "human SMAD7 mRNA", "% inhibition of SMAD7 mRNA expression", 33],
  ["771881 (antisense eA*eT*eT*eT*eT*d[5mC]*d[5mC]*dA*dA*dA*dA*dG*dG*dA*d[5mC]*eA*eA*eA*eA*e[5mC]) [compound 771881]", "human SMAD7 mRNA", "% inhibition of SMAD7 mRNA expression", 0],
  ["771746 (antisense eA*eA*eG*e[5mC]*e[5mC]*dG*dG*dG*d[5mC]*dA*dT*d[5mC]*dT*d[5mC]*dA*eG*eA*eG*e[5mC]*eA) [compound 771746]", "human SMAD7 mRNA", "% inhibition of SMAD7 mRNA expression", 22],
  ["771912 (antisense eA*eT*eA*eT*eT*d[5mC]*d[5mC]*dT*d[5mC]*dT*dG*d[5mC]*d[5mC]*dA*dA*eA*eG*eT*e[5mC]*e[5mC]) [compound 771912]", "human SMAD7 mRNA", "% inhibition of SMAD7 mRNA expression", 19]
]}

###

Tested on: human SMAD7 mRNA
testSummary: Dose-dependent inhibition of human SMAD7 mRNA expression in Hep3B cells (Example 3, Study 1 and 2)
Type: cell-based
testConditions: 740 nM, electroporation, approximately 16 hours, Study 2, relative to untreated control cells
Strand notation (5' to 3'): a small letter for the sugar, then the base; units joined by * are phosphorothioate-linked, units joined directly phosphodiester-linked; [ ] holds rarer units or linkages, { } end groups; capitals alone tell only the bases. k = constrained ethyl (cEt); [5mC] = 5-methylcytosine; d = 2'-deoxy (DNA)
Consider the following substances and their measured % inhibition of SMAD7 mRNA expression readings.

{"columns": ["substance", "systemName", "% inhibition of SMAD7 mRNA expression (%)"],
 "data": [
  ["799663 (antisense kG*k[5mC]*kA*d[5mC]*dA*dG*d[5mC]*d[5mC]*dA*dA*dG*dA*dG*kA*kT*kG) [compound 799663]", "human SMAD7 mRNA", 19],
  ["772560 (antisense kT*kT*kG*d[5mC]*dA*d[5mC]*dA*dG*d[5mC]*dA*dG*dG*dA*kG*kG*kG) [compound 772560]", "human SMAD7 mRNA", 0],
  ["799404 (antisense kG*kG*kA*dA*d[5mC]*dA*dT*dT*dT*dA*d[5mC]*d[5mC]*d[5mC]*k[5mC]*kT*kG) [compound 799404]", "human SMAD7 mRNA", 15]
]}
